These data points were gathered from PubChem BioAssay.

- test-details: growth inhibition of DIPG cells – cell-based, MIPE5.0 library, qHTS (AID 1347068);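 for IC50: cells exposed to compound for 48 hours before viability readout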
- measurement-parameters: SU-DIPG-XXV viability
Inconclusive results are not listed. Active and inactive are the calls of the source. No cut-off is given here; in the data, nearly all actives have IC50 up to about 30 µM.
Thanks in advance; please answer with one of these: T = active, F = inactive

Consider the following illustrative entries.
# compound, class-label
measured = [
    ("CCN1CCN(Cc2ccc(NC(=O)c3ccc(C)c(/C=C/c4cnc5[nH]ccc5c4OC)c3)cc2C(F)(F)F)CC1", "T"),
    ("Cc1cc(-c2ncc(CC(=O)Nc3ccc(-c4cnccn4)cn3)cc2C)ccn1", "F"),
    ("CC(C)[C@](O)(c1ccc2cc(OC(F)F)c(OC(F)F)cc2c1)c1cn[nH]n1", "F"),
    ("N#Cc1cccnc1N1CCN(C(=O)c2cccc(Cc3n[nH]c(=O)c4ccccc34)c2)CC1", "F"),
    ("Cc1ccc(-c2nc(N)nc3c2nnn3Cc2cccc(CO[C@H]3CCOC3)n2)o1", "F"),
    ("COc1cc(N2CCC(N3CCN(C)CC3)CC2)ccc1Nc1ncc(Cl)c(Nc2ccccc2S(=O)(=O)C(C)C)n1", "T"),
    ("CCOCc1nc2c(N)nc3ccccc3c2n1CC(C)(C)O", "F"),
    ("O=C(O)Cn1nnc(-c2cc(N3CCC(Oc4cc(F)ccc4Br)CC3)no2)n1", "F"),
]

Challenge: For this compound, state the assay outcome: CCCCC(F)(F)[C@@]1(O)CC[C@H]2[C@@H](CC(=O)[C@@H]2CCCCCCC(=O)O)O1
Response given: F

Challenge: Outcome logged for C[C@@H]1N=C(N)NC(N(C)C)=N1 in this assay:
Response given: F

---

- test-details: viability loss with induced miR-34 in A549 – imaging, A549 dox-inducible miR-34, nuclei and caspase counts, primary screen (AID 1347080)
- measurement-parameters: A549 miR-34 inducible, Hoechst nuclei count, 48 h; measured here: total cells with miR-34 induction; stronger effect = lower value
The following compounds are shown together with reported cell count values.
Write no unit; give the number alone.

# compound, cell count
measured = [
    ("C/C=C1\\C2C=C(C)CC1(N)c1ccc(=O)[nH]c1C2 (centres undefined)", 4140),
]

Challenge: Tell me cell count reported for Cc1cc(-c2ncc(CC(=O)Nc3ccc(-c4cnccn4)cn3)cc2C)ccn1
Response given: 6130

Challenge: Give cell count for the following compound: CCCCCCCC/C=C\CCCCCC(=O)OC
Response given: 5020

---

Reported z-score values for the following compounds.
- test-details: galactose survival enhancers in mitochondrial complex I cybrids – cell-based, galactose medium, ATP luminescence, primary screen (AID 1645843);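 note: positive z means more ATP and so rescue of galactose-driven cybrid death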
- measurement-parameters: complex I mutant cybrid cells, 72 h, stronger effect = higher value
Lab note: record the figure alone, no unit after it.

Consider the worked cases shown below.
# compound, z-score
rows = [
    ("OC(CCCN1CCN(c2ncc(F)cn2)CC1)c1ccc(F)cc1 (stereo not given)", -0.495),
    ("CC[C@@H]1Cn2c(c3nc(-c4ccccc4)nc-3n(C)c2=O)N1", -0.165),
    ("C[C@@H]1C(=O)OC2[C@H](O)C34[C@H]5C[C@@H](C(C)(C)C)[C@]36[C@@H](OC(=O)[C@@H]6O)O[C@@]4(C(=O)O5)[C@]21O (stereo not given in full)", -0.225),
    ("O=S(=O)(c1cccc2cnccc12)N1CCNCC1", -0.56),
    ("COC(=O)[C@H]1C2C[C@H]3c4[nH]c5ccccc5c4CCN3C[C@H]2CC[C@@H]1O (stereo not given in full)", -0.115),
]

Challenge: Supply measured z-score of CCCCc1nc2ccn(CC(=O)N(C)C)c(=O)c2n1Cc1ccc(-c2ccccc2-c2nn[nH]n2)cc1 in your reply.
Response given: -0.18

Challenge: Write down z-score measured for item Cn1ccc2cc(NC(=O)Nc3cccnc3)ccc21
Response given: 0.405

Challenge: Retrieve z-score measured for O=C(/C=C/c1ccccc1)NC(NC(=S)Nc1ccc(Cl)cc1)C(Cl)(Cl)Cl (stereo not given) and print it.
Response given: -0.74

Challenge: State, in one line, measured z-score of N[C@@H](C(=O)O)c1ccc(C(=O)O)c(C(=O)O)c1
Response given: 0.05

Challenge: Give the value of z-score reported for the following: NCCCCCc1cnc[nH]1
Response given: -0.155
